Data provenance is patent US20240285808A1.

Quick reference for Biodistribution, Lung among some molecules
experiment: Biodistribution of ^nat/52Mn-based probes in naïve mice; format: in vivo, mouse; conditions: 24 h post injection
Number only, in % ID/g; omit the unit.

// solved cases for Biodistribution, Lung follow
[[record]]
molecule = "NNCC(=O)NCCCN1CCN(CC(=O)[O-])Cc2cccc(n2)CN(CC(=O)[O-])CC1.[Mn+2]"
value_kind = "Biodistribution, Lung"
quantitative_readout = 0.1954

[[record]]
molecule = "CN(C)C(CCC(=O)NCCCN1CCN(CC(=O)[O-])Cc2cccc(n2)CN(CC(=O)[O-])CC1)C(=O)O.[Mn+2] (stereo not shown)"
value_kind = "Biodistribution, Lung"
quantitative_readout = 0.0599

[[record]]
molecule = "NNC(CCC(=O)NCCCN1CCN(CC(=O)[O-])Cc2cccc(n2)CN(CC(=O)[O-])CC1)C(=O)O.[Mn+2] (stereo not shown)"
value_kind = "Biodistribution, Lung"
quantitative_readout = 0.1312


We next turn to a different molecule, shown below.
Specify reported Biodistribution, Lung for the molecule shown: NOC(CCC(=O)NCCCN1CCN(CC(=O)[O-])Cc2cccc(n2)CN(CC(=O)[O-])CC1)C(=O)O.[Mn+2] (stereo not shown)
0.4469
